Measurement protocol: Cmax in ICR mouse at 25 micromol/kg, po measured after 24 hrs by LC-MS/MS analysis
Assay type: ADME, organism-based
Study conditions: in vivo, dose 25 µmol/kg
Listed here: items and their measured Cmax.
Write the value in nM as a bare number.

Consider the compound "CN(CC#Cc1cscn1)c1nc(=O)c2cc(C(F)(F)F)cc([N+](=O)[O-])c2s1" and give its measured Cmax.
2670

Consider the compound "CN(CC#Cc1ccccc1)c1nc(=O)c2cc(C(F)(F)F)cc([N+](=O)[O-])c2s1" and give its measured Cmax.
1290

Consider the compound O=c1nc(N2CCN(CC3CCCCC3)CC2)sc2c([N+](=O)[O-])cc(C(F)(F)F)cc12 [MACOZINONE] and give its measured Cmax.
472
